B1: HMOX1 (parent)
chain: YHIYVALEEEIERNKESPVFAPVY

Variants of: B1
Assay: protein stability index of a GFP-peptide fusion (GPS, HEK-293T) (PSI 1-6); higher = more stable;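 note: lentivirally expressed fusions sorted by FACS into six bins by GFP to DsRed ratio, PSI derived from sequencing read proportions per bin multiplied by bin number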
Settings: c terminus: a fixed tail appended
Rule: protein stability index under 2 gives FALSE, otherwise TRUE.

Enquiry: Given the entry S17F , answer whether its protein stability index meets or surpasses 2.
Return: FALSE

Enquiry: Given the entry V5P , answer whether its protein stability index meets or surpasses 2.
Return: TRUE

Enquiry: Given the entry Y1K , answer whether its protein stability index meets or surpasses 2.
Return: TRUE

Enquiry: Given the entry E10N , answer whether its protein stability index meets or surpasses 2.
Return: TRUE

Enquiry: Given the entry R13K , answer whether its protein stability index meets or surpasses 2.
Return: TRUE

Enquiry: Given the entry N14R , answer whether its protein stability index meets or surpasses 2.
Return: TRUE

Enquiry: Given the entry Y4Q , answer whether its protein stability index meets or surpasses 2.
Return: TRUE

Enquiry: Given the entry K15G , answer whether its protein stability index meets or surpasses 2.
Return: FALSE

Enquiry: Given the entry N14S , answer whether its protein stability index meets or surpasses 2.
Return: TRUE

Enquiry: Given the entry P18D , answer whether its protein stability index meets or surpasses 2.
Return: TRUE

Enquiry: Given the entry K15Q , answer whether its protein stability index meets or surpasses 2.
Return: TRUE

Enquiry: Given the entry E10S , answer whether its protein stability index meets or surpasses 2.
Return: TRUE

Enquiry: Given the entry P18F , answer whether its protein stability index meets or surpasses 2.
Return: FALSE

Enquiry: Given the entry F20V , answer whether its protein stability index meets or surpasses 2.
Return: TRUE

Enquiry: Given the entry E9N , answer whether its protein stability index meets or surpasses 2.
Return: TRUE

Enquiry: Given the entry Y1C , answer whether its protein stability index meets or surpasses 2.
Return: FALSE
